Tm values by entry
- method summary: melting temperature; fluorescence melt of hairpins on a sequencing array, two-state fit, raised by 9.35 °C to match UV melts
- condition description: sodium 0.088 M
A number alone suffices; assume °C.

Worked cases, answers included:
{"columns": ["chain", "endpoint value"],
 "data": [
  ["GGAGTCGAAAGACCATCC ((((((....)))..)))", 29.5],
  ["GGGCACGAAAGTGTACCC ((((((....)))..)))", 50.3],
  ["GGGCCCGAAAGGGCGCCC ((((((....)))..)))", 58.2],
  ["GGCGTGTCGAAAGACGCC (((..(((....))))))", 58.7],
  ["GATCGAGTCATCGATC ((((((....))))))", 60.7],
  ["GATCTCCTCTGAGATC ((((((....))))))", 51.8]
]}

[Q] # Tm lookup, item GACATCCGAAAGGACGTC (((.(((....))).)))
[A] 49

[Q] What value of measured Tm is listed for GCACGTGGAAACATGTGC ((((.((....)).)))) ?
[A] 56.9

[Q] Look up Tm for this sequence: CGTTCGGAAACGACGACG ((((((....)))..)))
[A] 37.5

[Q] Field request: Tm | item: GCTGTAACGAAAGTTAGC (((..(((....))))))
[A] 35

[Q] // returns reported Tm for input GACACCCGAAAGGGAGTC (((.(((....))).)))
[A] 57.5

[Q] # lookup: Tm of GCGGACGAAAGTCAACGC ((((((....)))..)))
[A] 54.3

* * *

- method summary: folding enthalpy; higher = less favourable; fluorescence melt of hairpins on a sequencing array, two-state fit
- condition description: sodium 0.088 M
property measured: folding enthalpy (kcal/mol)
Express your answer in kcal/mol, writing the number without its unit.

[Q] Find the recorded folding enthalpy belonging to CGGTGACGGAAACGTCCG (((..(((....)))))) and report it.
[A] -12

[Q] So what does the record say about folding enthalpy for GTAATCGGAAACGACTAC (((.(((....))).))) ?
[A] -19.5

* * *

The following sequences are shown together with reported folding enthalpy values.
- method summary: folding enthalpy; higher = less favourable; fluorescence melt of hairpins on a sequencing array, two-state fit
- condition description: sodium 0.088 M
Kindly answer with a numeric value in kJ/mol, unit omitted.

{"columns": ["chain", "unit abbrev", "folding enthalpy"],
 "data": [
  ["GCGGGTACCCGC ((((....))))", "kJ/mol", -143],
  ["GCTGGCGAAAGCCAAGC ((((((....))).)))", "kJ/mol", -84.6],
  ["GATTGTGGAAACGCAATC (((((.(....).)))))", "kJ/mol", -149],
  ["GATCACTGATGTGATC ((((((....))))))", "kJ/mol", -144],
  ["GAGAGGGGAAACCCCCTC (((.(((....))).)))", "kJ/mol", -62.3]
]}

Could you now consider this next sequence?
[Q] If you can, please state the reported folding enthalpy value of GTGCTAACGAAAGTTCAC (((..(((....)))))) .
[A] -30.1

* * *

- method summary: melting temperature; fluorescence melt of hairpins on a sequencing array, two-state fit, raised by 9.35 °C to match UV melts
- condition description: sodium 0.088 M
property measured: Tm (°C)
Supply the numeric figure in °C, leaving out any unit text.

Solved cases (2 shown):
{"columns": ["chain", "Tm / °C"],
 "data": [
  ["GACGAGGGAAACCTTGTC (((.(((....))).)))", 48.1],
  ["GTGGGATCGAAAGATCAC (((..(((....))))))", 54.4]
]}

[Q] Tm lookup needed for GTAGCCGAAAGGCTTAC ((((((....))).))) , thanks.
[A] 43.1

[Q] GET /values?readout=Tm&item= CGTACGCGGAAACGCACG (((..(((....))))))
[A] 40.7
